The reader will find reported T-C values listed item by item below.
tested on: Plasmodium berghei; assay: In vivo antimalarial activity against Plasmodium berghei infected mice (Mus musculus) at 640 mg/kg; format: functional
Give the quantity in days, number only.

Here are 2 compounds together with their reported answers.
INSERT INTO measurements (chemical_smiles, tested_on, property, number) VALUES
  ('Clc1ccc2c(NCCNc3ccnc4cc(Cl)ccc34)ccnc2c1', 'Plasmodium berghei', 'T-C', 1.4),
  ('Clc1ccc2c(NCCCCCCCCCCNc3ccnc4cc(Cl)ccc34)ccnc2c1', 'Plasmodium berghei', 'T-C', 0.6);

Clc1ccc2c(NCCCNc3ccnc4cc(Cl)ccc34)ccnc2c1 on Plasmodium berghei gives T-C = 1.2

Clc1ccc2c(NCCCCNc3ccnc4cc(Cl)ccc34)ccnc2c1 tested on Plasmodium berghei gave T-C: 5.6

The compound Clc1ccc2c(NCCCCCCCCCCCCNc3ccnc4cc(Cl)ccc34)ccnc2c1 , tested on Plasmodium berghei, showed T-C of 0

---

system: Plasmodium berghei; test: In vivo antimalarial activity against Plasmodium berghei infected mice (Mus musculus) at 640 mg/kg; format: functional
property: T-C

Completed entries (count: 3):
INSERT INTO measurements (molecule, result) VALUES
  ('Clc1ccc2c(NCCCCCCNc3ccnc4cc(Cl)ccc34)ccnc2c1', '>60 days'),
  ('CCN(CC)CCCC(C)Nc1ccnc2cc(Cl)ccc12 (stereo not given)', '>60 days'),
  ('CC(CCCNc1ccnc2cc(Cl)ccc12)CNc1ccnc2cc(Cl)ccc12 (stereo not given)', '>60 days');

For the molecule CC(CNc1ccnc2cc(Cl)ccc12)Nc1ccnc2cc(Cl)ccc12 (stereo not given) , the measured T-C on Plasmodium berghei was >60 days

Summary: Clc1ccc2c(NCCCCCNc3ccnc4cc(Cl)ccc34)ccnc2c1 , Plasmodium berghei, T-C = >60 days
